- Tested on: Streptomyces coelicolor
- Assay name: Potentiation of chloramphenicol-induced antibacterial activity against Streptomyces coelicolor at 25 ug/mL after 48 hrs relative to control
- Format: functional
Active and inactive are the calls of the source. No cut-off for these calls is given here. Where a SMILES comes first, the peptide text is derived from it. [ ]: non-standard residue; d: D form. The star is where a group is joined. ξ: configuration not given here. ξhPhe = NC(CCc1ccccc1)C(=O)O; βNA = c1ccc2cc(N*)ccc2c1
Parameter: Activity

# Compound, Result
records = [
    ("NCCC[C@@H](N)C(=O)NC(CCc1ccccc1)C(=O)NC1CCCCC1 (stereo partly drawn)", "inactive"),
    ("NCCC[C@@H](N)C(=O)NC(CCc1ccccc1)C(=O)NCc1ccccc1 (stereo partly drawn)", "Active"),
    ("NCCC[C@@H](N)C(=O)NC(C(=O)Nc1ccc2ccccc2c1)c1ccccc1 (stereo partly drawn)", "Active"),
    ("COc1ccc(C(NC(=O)[C@H](N)CCCN)C(=O)Nc2ccc3ccccc3c2)cc1 (stereo partly drawn)", "Active"),
    ("NCCCCC(=O)NC(CCc1ccccc1)C(=O)Nc1ccc2ccccc2c1 (stereo not drawn)", "Active"),
    ("CC(C)C(NC(=O)[C@H](N)CCCN)C(=O)Nc1ccc2ccccc2c1 (stereo partly drawn)", "Active"),
    ("NCCCCCC(=O)NC(CCc1ccccc1)C(=O)Nc1ccc2ccccc2c1 (stereo not drawn)", "Active"),
    ("CCCCNC(=O)C(CCc1ccccc1)NC(=O)[C@H](N)CCCN (stereo partly drawn)", "inactive"),
    ("NCCC(=O)NC(CCc1ccccc1)C(=O)Nc1ccc2ccccc2c1 (stereo not drawn)", "Active"),
    ("NCC(=O)NC(CCc1ccccc1)C(=O)Nc1ccc2ccccc2c1 (stereo not drawn) (H-Gly-[ξhPhe]-βNA)", "Active"),
    ("CC(C)(C)NC(=O)C(CCc1ccccc1)NC(=O)[C@H](N)CCCN (stereo partly drawn)", "inactive"),
    ("NCCC[C@@H](N)C(=O)NC(C(=O)Nc1ccc2ccccc2c1)c1ccc([N+](=O)[O-])cc1 (stereo partly drawn)", "Active"),
    ("CN(C(=O)[C@H](N)CCCN)C(CCc1ccccc1)C(=O)Nc1ccc2ccccc2c1 (stereo partly drawn)", "Active"),
]
